experimental-system: TRKA (Homo sapiens, UniProt P04629)
Sequence (P04629 33-796): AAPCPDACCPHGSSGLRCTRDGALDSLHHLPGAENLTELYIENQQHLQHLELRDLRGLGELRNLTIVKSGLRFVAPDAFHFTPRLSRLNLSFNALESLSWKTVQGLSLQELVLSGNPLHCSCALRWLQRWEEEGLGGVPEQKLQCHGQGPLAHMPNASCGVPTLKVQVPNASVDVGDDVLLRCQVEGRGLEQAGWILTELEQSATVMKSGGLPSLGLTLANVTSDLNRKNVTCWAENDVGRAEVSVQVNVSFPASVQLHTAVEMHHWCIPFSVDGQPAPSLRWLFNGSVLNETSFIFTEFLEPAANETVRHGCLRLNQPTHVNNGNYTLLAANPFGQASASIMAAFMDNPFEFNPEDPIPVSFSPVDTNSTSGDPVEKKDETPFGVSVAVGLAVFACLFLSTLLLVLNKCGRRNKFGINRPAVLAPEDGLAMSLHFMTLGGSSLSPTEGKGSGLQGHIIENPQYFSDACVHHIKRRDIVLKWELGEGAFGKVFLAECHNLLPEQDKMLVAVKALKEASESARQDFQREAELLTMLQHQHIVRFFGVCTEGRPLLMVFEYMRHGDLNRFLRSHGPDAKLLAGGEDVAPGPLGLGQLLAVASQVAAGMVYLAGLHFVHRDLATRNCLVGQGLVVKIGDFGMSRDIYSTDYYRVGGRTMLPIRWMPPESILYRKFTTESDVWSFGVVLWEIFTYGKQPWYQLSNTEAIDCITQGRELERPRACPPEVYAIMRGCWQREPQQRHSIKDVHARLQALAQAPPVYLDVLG
experiment-notes: TRKA kinase activity inhibition assay (caliper mobility shift)
Assay type: biochemical
pIC50: −log10 of the molar value.
A collection of compounds and their measured pIC50
property: pIC50

compound	observed-result
CC(=O)c1c(C)c2cnc(Nc3ccc4c(c3)OC[C@H]3CN(C5CCN(C)CC5)CCN43)nc2n(C2CCCC2)c1=O [Compound 2R]	> 8.00
CC(=O)c1c(C)c2cnc(Nc3ccc4c(c3)OC[C@@H]3CN(C5CCN(C)CC5)CCN43)nc2n(C2CCCC2)c1=O [Compound 2S]	> 8.00

====

A collection of compounds and their measured IC50
experimental-system: CDK9/CycT1 (Homo sapiens, UniProt P50750)
Sequence (P50750 whole entry): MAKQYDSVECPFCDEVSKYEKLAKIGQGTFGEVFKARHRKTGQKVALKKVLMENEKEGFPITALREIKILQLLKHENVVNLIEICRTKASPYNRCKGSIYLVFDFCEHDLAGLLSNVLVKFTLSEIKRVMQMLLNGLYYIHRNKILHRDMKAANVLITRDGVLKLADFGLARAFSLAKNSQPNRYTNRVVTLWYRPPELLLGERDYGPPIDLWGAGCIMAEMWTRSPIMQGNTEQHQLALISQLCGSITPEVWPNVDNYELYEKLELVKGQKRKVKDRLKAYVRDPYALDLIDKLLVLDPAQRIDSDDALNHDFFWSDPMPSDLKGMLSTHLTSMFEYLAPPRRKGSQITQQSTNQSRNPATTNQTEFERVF
Sequence (O60563 whole entry partner): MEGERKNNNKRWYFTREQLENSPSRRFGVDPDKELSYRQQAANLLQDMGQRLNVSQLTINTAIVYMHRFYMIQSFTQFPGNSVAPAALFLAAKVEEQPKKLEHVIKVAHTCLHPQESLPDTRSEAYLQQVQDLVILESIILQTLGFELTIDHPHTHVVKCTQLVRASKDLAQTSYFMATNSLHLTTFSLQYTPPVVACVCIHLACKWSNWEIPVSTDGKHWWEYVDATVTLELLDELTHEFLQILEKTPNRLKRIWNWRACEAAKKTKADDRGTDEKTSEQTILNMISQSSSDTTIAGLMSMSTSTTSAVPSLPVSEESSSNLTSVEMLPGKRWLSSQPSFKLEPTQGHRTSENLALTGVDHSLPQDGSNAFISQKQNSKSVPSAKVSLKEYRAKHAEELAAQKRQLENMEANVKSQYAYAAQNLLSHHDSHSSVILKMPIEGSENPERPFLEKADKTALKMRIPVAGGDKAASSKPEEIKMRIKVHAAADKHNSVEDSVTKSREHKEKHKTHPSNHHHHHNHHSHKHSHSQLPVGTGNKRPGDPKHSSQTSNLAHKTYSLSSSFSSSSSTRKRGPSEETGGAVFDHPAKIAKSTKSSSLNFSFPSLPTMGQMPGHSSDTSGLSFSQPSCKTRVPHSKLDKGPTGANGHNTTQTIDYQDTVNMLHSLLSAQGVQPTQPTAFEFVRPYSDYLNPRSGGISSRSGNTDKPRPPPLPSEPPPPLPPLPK
experiment-notes: CDK9 kinase activity inhibition assay (ADP-Glo)
condition-context: read-out: CDK9 kinase inhibitory activity (IC50)
property: IC50

record-smiles	property	observed-result
CC(=O)c1c(C)c2cnc(Nc3ccc4c(c3)OC[C@H]3CN(C5CCOCC5)CCN43)nc2n(C2CCCC2)c1=O	IC50	< 50 nM
CCN1CCC(N2CCN3c4ccc(Nc5ncc6c(C)c(C(C)=O)c(=O)n(C7CCCC7)c6n5)cc4OC[C@@H]3C2)CC1	IC50	< 20 nM
CC(=O)c1c(C)c2cnc(Nc3ccc4c(c3)OC[C@@H]3CN(C5CN(C)C5)CCN43)nc2n(C2CCCC2)c1=O	IC50	< 50 nM
CC(=O)c1c(C)c2cnc(Nc3ccc4c(c3)OC[C@@H]3CN(C5CCN(C)CC5)CCN43)nc2n(C2CCCC2)c1=O	IC50	< 20 nM
CC(=O)c1c(C)c2cnc(Nc3ccc4c(c3)OC[C@@H]3CN(C5CCNCC5)CCN43)nc2n(C2CCCC2)c1=O	IC50	< 20 nM
CC(=O)c1c(C)c2cnc(Nc3ccc4c(c3)OC[C@H]3CN(C5CCN(C(C)=O)CC5)CCN43)nc2n(C2CCCC2)c1=O	IC50	< 50 nM

====

experiment-notes: Pharmacokinetic study in rats (intragastrical administration, plasma LC-MS/MS)
condition-context: male, SD, rat, po, 3 mg/kg
A collection of compounds and their measured AUC(0-t)

compound	AUC(0-t)
CC(=O)c1c(C)c2cnc(Nc3ccc4c(c3)OC[C@@H]3CN(C5CCOCC5)CCN43)nc2n(C2CCCC2)c1=O	192 ng·h/mL
CC(=O)c1c(C)c2cnc(Nc3ccc4c(c3)OC[C@H]3CN(C5CCOCC5)CCN43)nc2n(C2CCCC2)c1=O	274 ng·h/mL
CC(=O)c1c(C)c2cnc(Nc3cc(F)c4c(c3)OC[C@@H]3CN(C5CCN(C)CC5)CCN43)nc2n(C2CCCC2)c1=O	697 ng·h/mL
CC(=O)c1c(C)c2cnc(Nc3ccc4c(c3)OC[C@@H]3CN(C5CCN(C(C)=O)CC5)CCN43)nc2n(C2CCCC2)c1=O	2480 ng·h/mL
CC(=O)c1c(C)c2cnc(Nc3ccc4c(c3)OC[C@@H]3CN(C5CN(C(C)=O)C5)CCN43)nc2n(C2CCCC2)c1=O [Compound 11S]	3000 ng·h/mL
CC(=O)c1c(C)c2cnc(Nc3ccc4c(c3)OC[C@@H]3CN(C5CN(S(C)(=O)=O)C5)CCN43)nc2n(C2CCCC2)c1=O [Compound 14S]	2030 ng·h/mL
CC(=O)c1c(C)c2cnc(Nc3ccc4c(c3)OC[C@@H]3CN(C5CN(C)C5)CCN43)nc2n(C2CCCC2)c1=O	1940 ng·h/mL
CC(=O)c1c(C)c2cnc(Nc3ccc4c(c3)OC[C@@H]3CN(C5COC5)CCN43)nc2n(C2CCCC2)c1=O [Compound 13S]	860 ng·h/mL
CCN1CCC(N2CCN3c4ccc(Nc5ncc6c(C)c(C(C)=O)c(=O)n(C7CCCC7)c6n5)cc4OC[C@@H]3C2)CC1	3770 ng·h/mL
CC(=O)c1c(C)c2cnc(Nc3ccc4c(c3)OC[C@H]3CN(C5CCN(C(C)=O)CC5)CCN43)nc2n(C2CCCC2)c1=O	4350 ng·h/mL
CC(=O)c1c(C)c2cnc(Nc3ccc4c(c3)OC[C@@H]3CN(C5CCN(C6CC6)CC5)CCN43)nc2n(C2CCCC2)c1=O	662 ng·h/mL
CC(=O)c1c(C)c2cnc(Nc3ccc4c(c3)OCC3CNCCN43)nc2n(C2CCCC2)c1=O (stereo not shown) [Ref-B, reference compound]	108 ng·h/mL
CC(=O)c1c(C)c2cnc(Nc3ccc4c(c3)OC[C@@H]3CN(C5CCNCC5)CCN43)nc2n(C2CCCC2)c1=O	1230 ng·h/mL
